target: human Werner helicase (WRN-BV08, Uniprot Q14191, amino acids 517-1235 with L1074F point mutation) (Homo sapiens, UniProt Q14191, L1074F)
Construct: Uniprot Q14191, amino acids 517-1235 with L1074F point mutation; TEV-cleavable 8×His (C, cleaved yes); made in house; host or cells: Sf9 insect cells (baculovirus)
Sequence (Q14191 with tags, fused parts or gaps L1074F limits assumed): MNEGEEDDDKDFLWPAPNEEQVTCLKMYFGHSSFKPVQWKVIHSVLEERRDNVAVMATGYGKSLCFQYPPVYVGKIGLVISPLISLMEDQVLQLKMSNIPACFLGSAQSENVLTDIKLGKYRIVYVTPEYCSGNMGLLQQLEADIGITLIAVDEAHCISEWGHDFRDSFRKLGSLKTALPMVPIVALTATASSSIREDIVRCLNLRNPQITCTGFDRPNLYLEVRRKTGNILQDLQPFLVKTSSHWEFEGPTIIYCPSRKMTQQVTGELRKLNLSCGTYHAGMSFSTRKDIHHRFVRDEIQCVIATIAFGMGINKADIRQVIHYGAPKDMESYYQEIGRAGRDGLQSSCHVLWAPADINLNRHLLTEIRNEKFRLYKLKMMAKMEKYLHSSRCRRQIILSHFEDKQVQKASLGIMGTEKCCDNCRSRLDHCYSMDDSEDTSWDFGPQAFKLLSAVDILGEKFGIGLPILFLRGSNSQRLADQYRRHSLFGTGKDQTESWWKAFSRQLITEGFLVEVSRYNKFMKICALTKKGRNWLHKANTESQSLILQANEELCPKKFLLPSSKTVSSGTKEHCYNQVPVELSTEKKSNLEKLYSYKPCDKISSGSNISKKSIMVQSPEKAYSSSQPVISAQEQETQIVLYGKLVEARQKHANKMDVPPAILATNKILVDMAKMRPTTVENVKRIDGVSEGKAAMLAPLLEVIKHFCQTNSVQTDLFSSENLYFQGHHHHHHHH
assay.procedure: WRN (BV08) ADP-Glo Assay
Format: biochemical
assay.setup: 0.15 nM WRN, 5 μM ATP, 0.1 nM DNA duplex, 15 min preincubation, 60 min at 25° C., pH 7.5, 1% DMSO; read-out: ADP-Glo_hWRN_IC50
pIC50: −log10 of the molar value.
metric: pIC50

CC(C)(O)c1cc(CN(C(=O)Cn2cc3cc(S(F)(F)(F)(F)F)ccc3n2)[C@@H]2C=CS(=O)(=O)C2)ccn1 [I-7] = > 6.30

Quick check: pIC50 of O=C(CC1CCN(c2ccccc2)CC1)N(Cc1ccncc1)C1C=CS(=O)(=O)C1 (stereo not drawn) [I-552] ?
< 4.30

pIC50 lookup needed for O=C(Cn1cc2ccc(C(F)F)cc2n1)N(Cc1ccncc1)C1C=CS(=O)(=O)C1 (stereo not drawn) [I-592] , thanks.
4.30 to 5.00
